Hey, just so you know, these numbers are from ChEMBL document CHEMBL3751719.

Target: D(2) dopamine receptor (Homo sapiens)
Experiment: Displacement of [3H]spiperone from human cloned D2 dopamine receptor incubated for 90 mins by radioligand binding assay
Recorded endpoint: Ki (nM)
Only the number, expressed in nM, is required.

Recorded Ki (molecule CN1CCc2ccccc2Cc2sccc2CC1 ): 45

Recorded Ki (molecule CN1CCc2ccccc2Cc2sc3ccccc3c2CC1 ): 1.5

* * *

Target: D(4) dopamine receptor (Homo sapiens, UniProt P21917)
Recorded endpoint: Ki
Include the unit right after the number.

Recorded Ki (compound CN1CC2c3ccccc3Oc3ccc(Cl)cc3C2C1 (stereo unspecified) ): 9 nM

* * *

Target: D(1A) dopamine receptor (Homo sapiens)
Sequence (P21728 whole entry): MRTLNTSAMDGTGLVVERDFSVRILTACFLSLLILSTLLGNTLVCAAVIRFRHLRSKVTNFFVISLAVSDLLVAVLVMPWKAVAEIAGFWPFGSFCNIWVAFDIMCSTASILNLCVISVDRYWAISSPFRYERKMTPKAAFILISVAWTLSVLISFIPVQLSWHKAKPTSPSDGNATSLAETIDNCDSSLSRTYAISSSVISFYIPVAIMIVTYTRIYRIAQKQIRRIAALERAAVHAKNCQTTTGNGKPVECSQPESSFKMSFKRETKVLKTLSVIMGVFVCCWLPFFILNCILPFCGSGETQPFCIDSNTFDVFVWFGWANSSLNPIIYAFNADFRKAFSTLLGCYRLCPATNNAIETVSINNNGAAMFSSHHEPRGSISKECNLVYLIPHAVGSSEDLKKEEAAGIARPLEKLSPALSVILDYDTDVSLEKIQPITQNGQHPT
Experiment: Displacement of [3H]SCH-23390 from human cloned D1 dopamine receptor incubated for 90 mins by radioligand binding assay
Below, each entry is listed alongside its reported pKi.
Please keep in mind that pKi is minus log10 of the molar concentration; only the number is needed.

| Chem smiles | pKi |
| --- | --- |
| CN1CCc2ccccc2Cc2sc3ccccc3c2CC1 | 7.40 |

Could you now look at the following molecule, please?
Recorded pKi (molecule CN1CCc2ccccc2Cc2sccc2CC1 ): 7.22

* * *

Target: D(4) dopamine receptor (Homo sapiens)
Sequence (P21917 whole entry): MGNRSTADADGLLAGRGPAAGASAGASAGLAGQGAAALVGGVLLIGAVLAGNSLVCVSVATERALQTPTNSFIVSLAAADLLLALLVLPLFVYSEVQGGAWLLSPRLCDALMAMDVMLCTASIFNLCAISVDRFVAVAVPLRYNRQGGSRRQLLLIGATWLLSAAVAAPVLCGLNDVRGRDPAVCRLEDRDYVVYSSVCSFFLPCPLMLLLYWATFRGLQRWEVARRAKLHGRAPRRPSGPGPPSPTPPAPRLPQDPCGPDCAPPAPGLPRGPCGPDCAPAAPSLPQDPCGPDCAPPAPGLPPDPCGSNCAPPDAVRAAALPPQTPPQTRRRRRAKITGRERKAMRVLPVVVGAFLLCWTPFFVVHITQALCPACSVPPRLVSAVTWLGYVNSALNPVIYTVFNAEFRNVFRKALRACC
Experiment: Binding affinity to human cloned D4 dopamine receptor incubated for 90 mins by radioligand binding assay
Recorded endpoint: pKi
Please keep in mind that pKi is minus log10 of the molar concentration; only the number is needed.

| Chem smiles | Tested system | pKi |
| --- | --- | --- |
| CN1CCc2ccccc2Cc2sccc2CC1 | D(4) dopamine receptor (Homo sapiens) | 6.73 |

Could you now look at the following compound, please?
Recorded pKi (compound CN1CCc2ccccc2Cc2sc3ccccc3c2CC1 ): 7.14

* * *

Target: D(3) dopamine receptor (Homo sapiens)
Sequence (P35462 whole entry): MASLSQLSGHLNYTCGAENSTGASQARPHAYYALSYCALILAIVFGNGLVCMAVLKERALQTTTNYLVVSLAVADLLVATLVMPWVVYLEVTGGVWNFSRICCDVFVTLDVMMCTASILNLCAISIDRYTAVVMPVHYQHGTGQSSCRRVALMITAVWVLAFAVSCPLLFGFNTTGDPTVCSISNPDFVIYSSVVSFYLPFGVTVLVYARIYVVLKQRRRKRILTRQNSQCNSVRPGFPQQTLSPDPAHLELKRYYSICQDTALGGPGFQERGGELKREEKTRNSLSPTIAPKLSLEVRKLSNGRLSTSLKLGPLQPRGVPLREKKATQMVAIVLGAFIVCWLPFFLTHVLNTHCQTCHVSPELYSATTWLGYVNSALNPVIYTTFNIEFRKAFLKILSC
Assay: Binding affinity to human cloned D3 dopamine receptor incubated for 90 mins by radioligand binding assay
Recorded endpoint: Ki

| Chem smiles | Reported result |
| --- | --- |
| CN1CCc2ccccc2Cc2sccc2CC1 | 24 nM |

Recorded Ki (compound CCOC(=O)N1CCc2ccccc2Cc2sccc2CC1 ): > 1000 nM

Recorded Ki (compound CCOC(=O)N1CCc2ccccc2Cc2ccsc2CC1 ): > 1000 nM

Recorded Ki (compound CCOC(=O)N1CCc2ccccc2Cc2sc3ccccc3c2CC1 ): > 1000 nM

Recorded Ki (compound CN1CCc2ccccc2Cc2sc3ccccc3c2CC1 ): 18 nM

* * *

Below, each entry is listed alongside its reported Ki.
Target: D(1B) dopamine receptor (Homo sapiens)
Sequence (P21918 whole entry): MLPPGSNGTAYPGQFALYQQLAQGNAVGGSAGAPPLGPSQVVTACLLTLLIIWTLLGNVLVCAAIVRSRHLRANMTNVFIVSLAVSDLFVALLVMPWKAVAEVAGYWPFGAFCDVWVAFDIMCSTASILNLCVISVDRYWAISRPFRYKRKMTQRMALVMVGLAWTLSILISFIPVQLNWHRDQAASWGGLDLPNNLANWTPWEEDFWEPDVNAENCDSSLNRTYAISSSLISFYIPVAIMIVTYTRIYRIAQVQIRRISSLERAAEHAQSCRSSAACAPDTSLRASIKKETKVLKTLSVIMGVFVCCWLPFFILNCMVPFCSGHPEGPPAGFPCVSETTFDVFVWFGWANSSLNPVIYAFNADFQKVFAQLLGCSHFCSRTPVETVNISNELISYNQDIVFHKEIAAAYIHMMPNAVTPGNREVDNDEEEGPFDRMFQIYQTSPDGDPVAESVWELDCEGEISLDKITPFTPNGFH
Assay: Binding affinity to human cloned D5 dopamine receptor incubated for 90 mins by radioligand binding assay
Only the number, expressed in nM, is required.

| Chem smiles | Tested system | Value units | Reported result |
| --- | --- | --- | --- |
| CN1CCc2ccccc2Cc2sc3ccccc3c2CC1 | D(1B) dopamine receptor (Homo sapiens) | nM | 1.9 |

Recorded Ki (molecule CN1CCc2ccccc2Cc2sccc2CC1 ): 3

* * *

Below, each entry is listed alongside its reported pKi.
Target: D(2) dopamine receptor (Homo sapiens, UniProt P14416)
Sequence (P14416 whole entry): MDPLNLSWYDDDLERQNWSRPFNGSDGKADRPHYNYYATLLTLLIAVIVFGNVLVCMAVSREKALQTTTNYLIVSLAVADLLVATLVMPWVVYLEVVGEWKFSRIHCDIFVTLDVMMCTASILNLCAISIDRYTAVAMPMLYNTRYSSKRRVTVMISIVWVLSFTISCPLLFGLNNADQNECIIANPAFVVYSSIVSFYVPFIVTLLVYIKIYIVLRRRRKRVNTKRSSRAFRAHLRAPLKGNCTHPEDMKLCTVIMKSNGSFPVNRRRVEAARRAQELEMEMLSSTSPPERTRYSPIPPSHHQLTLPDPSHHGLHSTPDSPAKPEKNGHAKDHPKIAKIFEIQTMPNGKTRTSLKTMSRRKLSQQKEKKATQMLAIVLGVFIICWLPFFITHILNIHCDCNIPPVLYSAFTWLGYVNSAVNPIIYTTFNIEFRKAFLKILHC
Experiment: Displacement of [3H]spiperone from human cloned D2 dopamine receptor incubated for 90 mins by radioligand binding assay
pKi: −log10 of the molar value.

Below, 2 compounds whose answers are already recorded.
| Chem smiles | pKi |
| --- | --- |
| CCOC(=O)N1CCc2ccccc2Cc2sc3ccccc3c2CC1 | < 6.00 |
| CCOC(=O)N1CCc2ccccc2Cc2ccsc2CC1 | < 6.00 |

Recorded pKi (compound CCOC(=O)N1CCc2ccccc2Cc2sccc2CC1 ): < 6.00

* * *

Target: D(1A) dopamine receptor (Homo sapiens)
Test: Displacement of [3H]SCH-23390 from human cloned D1 dopamine receptor incubated for 90 mins by radioligand binding assay
pKi: −log10 of the molar value.
Below, each entry is listed alongside its reported pKi.

Below, 2 compounds whose answers are already recorded.
| Chem smiles | Recorded endpoint | Reported result |
| --- | --- | --- |
| CCOC(=O)N1CCc2ccccc2Cc2ccsc2CC1 | pKi | < 6.00 |
| CCOC(=O)N1CCc2ccccc2Cc2sccc2CC1 | pKi | < 6.00 |

Could you now look at the following compound, please?
Recorded pKi (compound CCOC(=O)N1CCc2ccccc2Cc2sc3ccccc3c2CC1 ): < 6.00

* * *

Biological target: D(4) dopamine receptor (Homo sapiens, UniProt P21917)
Sequence (P21917 whole entry): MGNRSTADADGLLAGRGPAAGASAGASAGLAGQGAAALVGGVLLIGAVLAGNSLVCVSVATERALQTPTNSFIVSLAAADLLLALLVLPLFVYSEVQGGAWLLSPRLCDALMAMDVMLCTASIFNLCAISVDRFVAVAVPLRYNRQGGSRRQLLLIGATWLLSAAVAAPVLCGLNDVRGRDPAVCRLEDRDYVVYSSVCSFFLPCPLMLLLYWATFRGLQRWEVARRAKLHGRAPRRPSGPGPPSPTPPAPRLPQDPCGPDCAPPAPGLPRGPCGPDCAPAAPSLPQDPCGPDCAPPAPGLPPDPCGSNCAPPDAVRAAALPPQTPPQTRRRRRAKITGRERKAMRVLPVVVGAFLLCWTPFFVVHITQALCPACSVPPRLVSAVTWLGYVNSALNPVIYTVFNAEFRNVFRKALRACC
Experiment: Binding affinity to human cloned D4 dopamine receptor incubated for 90 mins by radioligand binding assay
Recorded endpoint: Ki

| Chem smiles | Recorded endpoint | Reported result |
| --- | --- | --- |
| CCOC(=O)N1CCc2ccccc2Cc2sc3ccccc3c2CC1 | Ki | > 1 µM |
| CCOC(=O)N1CCc2ccccc2Cc2sccc2CC1 | Ki | > 1 µM |

Could you now look at the following compound, please?
Recorded Ki (compound CCOC(=O)N1CCc2ccccc2Cc2ccsc2CC1 ): > 1 µM

* * *

Target: D(1B) dopamine receptor (Homo sapiens)
Assay: Binding affinity to human cloned D5 dopamine receptor incubated for 90 mins by radioligand binding assay
Below, each entry is listed alongside its reported Ki.

Below, 2 compounds whose answers are already recorded.
| Chem smiles | Ki |
| --- | --- |
| CCOC(=O)N1CCc2ccccc2Cc2ccsc2CC1 | > 1000 nM |
| CCOC(=O)N1CCc2ccccc2Cc2sc3ccccc3c2CC1 | > 1000 nM |

Could you now look at the following compound, please?
Recorded Ki (compound CCOC(=O)N1CCc2ccccc2Cc2sccc2CC1 ): > 1000 nM
